Biological target: TEM-1 (Class A beta-lactamase) (Escherichia coli, UniProt P62593)
Sequence (P62593 whole entry, looked up, species assumed): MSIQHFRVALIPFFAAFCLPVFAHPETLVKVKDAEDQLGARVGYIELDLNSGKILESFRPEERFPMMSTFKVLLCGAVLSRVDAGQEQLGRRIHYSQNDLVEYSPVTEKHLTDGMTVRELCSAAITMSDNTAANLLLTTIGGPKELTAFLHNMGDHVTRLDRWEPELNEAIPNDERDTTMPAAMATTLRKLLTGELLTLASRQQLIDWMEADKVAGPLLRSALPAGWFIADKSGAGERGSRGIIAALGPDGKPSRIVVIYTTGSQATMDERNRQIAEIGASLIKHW
Assay: Inhibition of beta-lactamase enzymes (nitrocefin hydrolysis), TEM-1
Conditions: read-out: Class A TEM-1 60 min IC50, nitrocefin 100 μM
Experimental: A buffer consisting of 0.1 M sodium phosphate (pH 7.0), 10 mM NaHCO3, and 0.005% Triton X-100 was used for all enzymes. The chromogenic substrate nitrocefin (SynGene, Bangalore, India) was used at 100 μM. Enzyme activity was monitored by the 490 nm absorbance increase upon nitrocefin hydrolysis. […] Absorbance was measured for 1 hour at 30-s intervals using a Spectramax absorbance plate reader (Molecular Devices, Sunnyvale, Calif.). […]
Where a name gives a salt, the structure may show the parent alone.
The molecules listed here are annotated with their IC50.

Molecule: CC1=C[C@@H](C(N)=O)N2C[C@@H]1N(OCC(=O)O)C2=O [Example 93, lithium salt]
IC50, nM: 150
--
Molecule: CC(=O)NNC(=O)[C@@H]1C(C)=C[C@@H]2CN1C(=O)N2OC(F)C(=O)O (stereo partly shown) [Example 27, lithium salt]
IC50, nM: 47
--
Molecule: CC1=C[C@@H]2CN(C(=O)N2O[C@@H](F)C(=O)O)[C@@H]1C(=O)NCc1cnccn1 [Example 69, lithium salt]
IC50, nM: 180
--
Molecule: CC(=O)NCNC(=O)[C@@H]1C(C)=C[C@@H]2CN1C(=O)N2O[C@@H](F)C(=O)O [Example 88, lithium salt]
IC50, nM: 54

---

Test: Stability/conversion of esters in human liver S9
Assay type: in vitro ADME
Details: s9, pH 7.4, read-out: T1/2 Human Liver S9
Field: label. Allowed values: Y (half-life at 10 μM < 5 min) or N (half-life at 10 μM >= 5 min).

Compound: CC1=C[C@@H]2CN(C(=O)N2O[C@H](F)C(=O)OCc2ccccc2)[C@@H]1C(N)=O [Example 54]
Group: Y
//
Compound: CC[C@@H](C)OC(=O)[C@@H](F)ON1C(=O)N2C[C@H]1C=C(C)[C@H]2C(N)=O [Example 22]
Group: Y
//
Compound: CCOC(=O)[C@@H](F)ON1C(=O)N2C[C@H]1C(C)=C[C@H]2C(N)=O [Example 31]
Group: N
//
Compound: CCOC(=O)[C@@H](F)ON1C(=O)N2C[C@H]1C=C(C)[C@H]2C(N)=O [Example 1]
Group: N
//
Compound: CCC(CC)OC(=O)[C@@H](F)ON1C(=O)N2C[C@H]1C=C(C)[C@H]2C(N)=O [Example 24]
Group: N

---

Biological target: TEM-1 (Class A beta-lactamase) (Escherichia coli, UniProt P62593)
Assay: Inhibition of beta-lactamase enzymes (nitrocefin hydrolysis), TEM-1
Conditions: read-out: Class A TEM-1 60 min IC50, nitrocefin 100 μM
pIC50: −log10 of the molar value. Where a name gives a salt, the structure may show the parent alone.

Molecule: CC1=C[C@@H]2CN(C(=O)N2O[C@@H](F)C(=O)O)[C@@H]1C(=O)NOC[C@@H]1CCC(=O)N1 [Example 72, lithium salt]
Study Target: TEM-1 (Class A beta-lactamase) (Escherichia coli, UniProt P62593)
pIC50: 7.11
--
Molecule: CC1=C[C@@H]2CN(C(=O)N2OC(F)C(=O)O)[C@@H]1c1nnc(C(N)=O)o1 (some centres unmarked) [Example 55, lithium salt]
Study Target: TEM-1 (Class A beta-lactamase) (Escherichia coli, UniProt P62593)
pIC50: 7.62
--
Molecule: CC1=C[C@@H]2CN(C(=O)N2O[C@@H](F)C(=O)O)[C@@H]1C(N)=O [Example 3, lithium salt]
Study Target: TEM-1 (Class A beta-lactamase) (Escherichia coli, UniProt P62593)
pIC50: 7.72
--
Molecule: CC1=C[C@@H]2CN(C(=O)N2O[C@@H](F)C(=O)O)[C@@H]1CNC(=O)OC(C)(C)C [Example 76, lithium salt]
Study Target: TEM-1 (Class A beta-lactamase) (Escherichia coli, UniProt P62593)
pIC50: 6.03
--
Molecule: CC1=C[C@@H](C(N)=O)N2C[C@@H]1N(O[C@H](F)C(=O)O)C2=O [Example 33, lithium salt]
Study Target: TEM-1 (Class A beta-lactamase) (Escherichia coli, UniProt P62593)
pIC50: 8.49
--
Molecule: CC1=C[C@@H]2CN(C(=O)N2O[C@@H](F)C(=O)O)[C@@H]1C(=O)NCC#N [Example 82, lithium salt]
Study Target: TEM-1 (Class A beta-lactamase) (Escherichia coli, UniProt P62593)
pIC50: 7.07
--
Molecule: O=C(O)C(F)ON1C(=O)N2C[C@H]1CC[C@H]2C(=O)NC1CCNCC1 (some centres unmarked) [Comparator 99, reference compound]
Study Target: TEM-1 (Class A beta-lactamase) (Escherichia coli, UniProt P62593)
pIC50: 7.52
--
Molecule: CC1=C[C@@H]2CN(C(=O)N2OCC(=O)O)[C@@H]1C(N)=O [Example 10, lithium salt]
Study Target: TEM-1 (Class A beta-lactamase) (Escherichia coli, UniProt P62593)
pIC50: 6.37
--
Molecule: NC(=O)[C@@H]1C(C2CC2)=C[C@@H]2CN1C(=O)N2OC(F)C(=O)O (stereo in doubt) [Example 42, lithium salt]
Study Target: TEM-1 (Class A beta-lactamase) (Escherichia coli, UniProt P62593)
pIC50: 7.62
--
Molecule: CC1=C[C@@H]2CN(C(=O)N2O[C@@H](F)C(=O)O)[C@@H]1C(=O)NCCNS(C)(=O)=O [Example 67, lithium salt]
Study Target: TEM-1 (Class A beta-lactamase) (Escherichia coli, UniProt P62593)
pIC50: 7.19
--
Molecule: CC1=C[C@@H]2CN(C(=O)N2O[C@@H](F)C(=O)O)[C@@H]1C(=O)NOC[C@@H]1CC(F)(F)CN1 [Example 63, TFA salt]
Study Target: TEM-1 (Class A beta-lactamase) (Escherichia coli, UniProt P62593)
pIC50: 6.96
--
Molecule: CC1=C[C@@H]2CN(C(=O)N2O[C@@H](F)C(=O)O)[C@@H]1C(=O)NCC[C@@H]1CCC(=O)N1 [Example 73, lithium salt]
Study Target: TEM-1 (Class A beta-lactamase) (Escherichia coli, UniProt P62593)
pIC50: 6.14
--
Molecule: CC1=C[C@@H]2CN(C(=O)N2O[C@@H](F)C(=O)O)[C@@H]1C(=O)NCCS(N)(=O)=O [Example 57, lithium salt]
Study Target: TEM-1 (Class A beta-lactamase) (Escherichia coli, UniProt P62593)
pIC50: 7.24
--
Molecule: CC1=C[C@@H]2CN(C(=O)N2OC(F)(F)C(=O)O)[C@@H]1C(N)=O [Example 8, lithium salt]
Study Target: TEM-1 (Class A beta-lactamase) (Escherichia coli, UniProt P62593)
pIC50: 8.82
